All figures here come from patent US9346786B2.

Target: recombinant human NK3 receptor (Homo sapiens (Human), UniProt P29371)
Sequence (P29371 whole entry): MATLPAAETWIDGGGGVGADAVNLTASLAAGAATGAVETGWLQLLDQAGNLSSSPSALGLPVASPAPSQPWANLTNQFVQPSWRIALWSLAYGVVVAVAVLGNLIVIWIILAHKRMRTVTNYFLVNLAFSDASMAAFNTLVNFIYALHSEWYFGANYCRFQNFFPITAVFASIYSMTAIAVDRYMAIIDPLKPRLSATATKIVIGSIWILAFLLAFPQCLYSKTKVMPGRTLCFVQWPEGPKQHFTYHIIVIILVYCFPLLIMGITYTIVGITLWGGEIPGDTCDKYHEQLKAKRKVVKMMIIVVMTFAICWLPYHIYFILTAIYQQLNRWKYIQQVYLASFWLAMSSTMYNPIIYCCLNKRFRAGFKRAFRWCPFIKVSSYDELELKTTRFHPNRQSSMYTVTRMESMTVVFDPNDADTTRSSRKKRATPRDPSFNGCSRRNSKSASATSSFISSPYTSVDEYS
Experiment: biochemical
Type: binding
Details: [3H]SR142801, membranes of HEK293 cells transiently expressing recombinant human NK3 receptor; read-out: Data Ki (hNK-3 receptor affinity)
VALUE TYPE: Ki (nM)
Form entry: value (nM) — number only.

Take a look at these entries with their results.
> print(dat)
                                   compound  meas.value
1  CC1(C(=O)N2CCC(C(=O)N3C[C@@H](N(C(=O)Oc4ccc(F)cc4)C4CC4)[C@H](c4ccc(Cl)c(Cl)c4)C3)CC2)CC1 (racemic)          10
2  CCN(C(=O)Oc1ccc(F)cc1)[C@@H]1CN(C(=O)C2CCN(C(=O)c3ccc(F)cn3)CC2)C[C@H]1c1ccc(Cl)cc1         8.2
3  CC(C)N(C(=O)Oc1ccc(F)cc1)[C@H]1CN(C(=O)C2CCN(c3ccc(C#N)cn3)CC2)C[C@@H]1c1ccc(Cl)cc1          50

Q) Would you kindly share the measured Ki for CCN(C(=O)Oc1ccc(F)cc1)[C@@H]1CN(C(=O)C2CCN(c3ccc(C#N)cn3)CC2)C[C@H]1c1ccc(Cl)c(F)c1 ?
A) 0.7

Q) # repeat for CCN(C(=O)Oc1ccc(F)cc1)[C@@H]1CN(C(=O)C2CCN(C(=O)C3(C)CC3)CC2)C[C@H]1c1ccc(F)c(F)c1
A) 15

Q) # repeat for CCN(C(=O)Oc1ccc(F)cc1)[C@@H]1CN(C(=O)C2CCN(c3ccc(Cl)cn3)CC2)C[C@H]1c1ccc(Cl)cc1
A) 4.8

Q) # repeat for CCN(C(=O)Oc1ccc(F)cc1)[C@@H]1CN(C(=O)C2CCN(C(=O)C3CC(OC)C3)CC2)C[C@H]1c1ccc(Cl)cc1 (stereo partly shown)
A) 6.5

Q) # repeat for CCN(C(=O)Oc1ccc(F)cc1)[C@@H]1CN(C(=O)C2CCN(C(=O)C3CCC3)CC2)C[C@H]1c1ccc(Cl)cc1
A) 2.1

Q) # repeat for CCN(C(=O)Oc1ccc(F)cc1)[C@@H]1CN(C(=O)C2CCN(c3ccc(C(C)(C)O)cn3)CC2)C[C@H]1c1ccc(Cl)c(F)c1
A) 3.8

Q) # repeat for CCN(C(=O)Oc1ccc(F)cc1)[C@@H]1CN(C(=O)C2CCN(C(=O)C3CC3(F)F)CC2)C[C@H]1c1ccc(Cl)cc1 (stereo partly shown)
A) 3.4
